Molecular target: Peptide Deformylase (PDF) (Escherichia coli, UniProt P0A6K3)
Sequence (P0A6K3 whole entry): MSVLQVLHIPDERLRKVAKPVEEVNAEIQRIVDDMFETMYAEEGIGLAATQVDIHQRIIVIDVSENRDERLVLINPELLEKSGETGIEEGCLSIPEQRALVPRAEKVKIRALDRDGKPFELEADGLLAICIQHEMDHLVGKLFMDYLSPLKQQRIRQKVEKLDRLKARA
pIC50: −log10 of the molar value.
Param threshold (6) applies to pIC50; output fulfilled when value >= threshold, not fulfilled when value < threshold.

[[record]]
compound = "COC(=O)CNC(=O)c1ccc2c(c1)nc(C(Cc1cccc3ccccc13)NC(=O)CCC(=O)NO)n2CCc1cccs1 (stereo not drawn)"
assayed_target = "Peptide Deformylase (PDF) (Escherichia coli, UniProt P0A6K3)"
classification = "not fulfilled"

[[record]]
compound = "CCC(NC(=O)CCS)c1nc2cc(C(=O)NCC(=O)OC)ccc2n1C1CC1 (stereo not drawn)"
assayed_target = "Peptide Deformylase (PDF) (Escherichia coli, UniProt P0A6K3)"
classification = "not fulfilled"

[[record]]
compound = "CCC(NC(=O)CCC(=O)NO)c1nc2cc(C(=O)NCC(=O)OC)ccc2n1Cc1ccccc1 (stereo not drawn)"
assayed_target = "Peptide Deformylase (PDF) (Escherichia coli, UniProt P0A6K3)"
classification = "fulfilled"

[[record]]
compound = "COC(=O)CNC(=O)c1ccc2c(c1)nc(C(CCSC)NC(=O)CCC(=O)NO)n2CC1CCCCC1 (stereo not drawn)"
assayed_target = "Peptide Deformylase (PDF) (Escherichia coli, UniProt P0A6K3)"
classification = "fulfilled"


Next compound, please.
Lookup: Identify whether the reported pIC50 of the following compound is 6 or greater: COC(=O)CNC(=O)c1ccc2c(c1)nc(C(Cc1cccc3ccccc13)NC(=O)CCC(=O)NO)n2Cc1ccccc1 (stereo not drawn)
Found: not fulfilled

====

Biological target: Peptide Deformylase (PDF) (Staphylococcus aureus)
Sequence (P68826 1-183): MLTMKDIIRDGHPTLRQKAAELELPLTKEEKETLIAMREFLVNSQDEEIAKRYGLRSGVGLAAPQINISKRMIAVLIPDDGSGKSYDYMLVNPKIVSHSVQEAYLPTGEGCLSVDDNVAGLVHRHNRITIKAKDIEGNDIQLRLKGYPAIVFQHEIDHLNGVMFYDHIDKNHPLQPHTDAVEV
pIC50: −log10 of the molar value.
Param threshold (6) applies to pIC50; output t when value >= threshold, f when value < threshold.

Before answering, review these 3 worked examples.
[[record]]
compound = "COC(=O)CNC(=O)c1ccc2c(c1)nc(C(Cc1ccccc1)NC(=O)CCS)n2CCN (stereo not shown)"
assayed_target = "Peptide Deformylase (PDF) (Staphylococcus aureus)"
classification = "f"

[[record]]
compound = "COC(=O)CNC(=O)c1ccc2c(c1)nc(C(CCc1ccccc1)NC(=O)CCC(=O)O)n2CC1CCCCC1 (stereo not shown)"
assayed_target = "Peptide Deformylase (PDF) (Staphylococcus aureus)"
classification = "f"

[[record]]
compound = "COC(=O)CNC(=O)c1ccc2c(c1)nc(C(CCCCN)NC(=O)CCS)n2Cc1ccccc1 (stereo not shown)"
assayed_target = "Peptide Deformylase (PDF) (Staphylococcus aureus)"
classification = "f"


Lookup: Identify whether the reported pIC50 of the following compound is 6 or greater: COC(=O)CNC(=O)c1ccc2c(c1)nc(C(CCc1ccccc1)NC(=O)CCC(=O)NO)n2C1CC1 (stereo not shown)
Found: t

Lookup: Identify whether the reported pIC50 of the following compound is 6 or greater: COC(=O)CNC(=O)c1ccc2c(c1)nc(C(Cc1ccccc1)NC(=O)CCC(=O)O)n2CCO (stereo not shown)
Found: f

Lookup: Identify whether the reported pIC50 of the following compound is 6 or greater: COC(=O)CNC(=O)c1ccc2c(c1)nc(C(CCSC)NC(=O)CCC(=O)NO)n2Cc1ccccc1 (stereo not shown)
Found: f
